Biological target: KRAS G12V (Homo sapiens, UniProt P01116+P62937, G12V)
Sequence (P01116 1-169 isoform P01116-2 G12V limits assumed): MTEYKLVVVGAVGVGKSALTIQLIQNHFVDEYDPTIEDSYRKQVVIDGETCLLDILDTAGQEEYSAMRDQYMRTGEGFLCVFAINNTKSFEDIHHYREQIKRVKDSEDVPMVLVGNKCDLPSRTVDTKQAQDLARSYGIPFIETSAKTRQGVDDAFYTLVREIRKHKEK
Sequence (P62937 whole entry): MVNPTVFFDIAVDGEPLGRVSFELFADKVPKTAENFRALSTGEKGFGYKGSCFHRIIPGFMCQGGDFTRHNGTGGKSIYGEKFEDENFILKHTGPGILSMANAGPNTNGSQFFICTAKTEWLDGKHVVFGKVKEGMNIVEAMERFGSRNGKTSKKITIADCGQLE
Assay: Disruption of BRAF RBD interaction with Ras (FRET / MOA assay, with Cyclophilin A)
Type: biochemical
Details: KRAS G12V; read-out: KRAS G12V FRET data IC50
pIC50: −log10 of the molar value.
PARAMETER: pIC50

COMPOUND	PARAMETER	MEASURED_RESULT
CCn1c(-c2cccnc2[C@H](C)OC)c2c3cc(ccc31)-c1csc(n1)C[C@H](NC(=O)[C@H](C(C)C)N(C)C(=O)N1C[C@H](C)N(C)C[C@@H]1C)C(=O)N1CCC[C@H](N1)C(=O)OCC(C)(C)C2	pIC50	5.00 to 6.00
CCn1c(-c2cccnc2[C@H](C)OC)c2c3cc(ccc31)-c1csc(n1)C[C@H](NC(=O)[C@H](C(C)C)N(C)C(=O)N(C)C(C)C)C(=O)N1CCC[C@H](N1)C(=O)OCC(C)(C)C2	pIC50	6.00 to 7.00
CCn1c(-c2cccnc2[C@H](C)OC)c2c3cc(ccc31)-c1cc(O)cc(c1)C[C@H](NC(=O)[C@H](C(C)C)N(C)C(=O)C1CC13CCNC3)C(=O)N1CCC[C@H](N1)C(=O)OCC(C)(C)C2 (stereo partly drawn)	pIC50	6.00 to 7.00
CCn1c(-c2cccnc2[C@H](C)OC)c2c3cc(ccc31)-c1csc(n1)C[C@H](NC(=O)[C@H](C(C)C)N(C)C(=O)N1CC(CO)C1)C(=O)N1CCC[C@H](N1)C(=O)OCC(C)(C)C2 (atropisomer, axis not shown)	pIC50	6.00 to 7.00
CCn1c(-c2cccnc2[C@H](C)OC)c2c3cc(ccc31)-c1cc(O)cc(c1)C[C@H](NC(=O)[C@H](C(C)C)N(C)C(=O)OC1CC1)C(=O)N1CCC[C@H](N1)C(=O)OCC(C)(C)C2	pIC50	6.00 to 7.00
C=CC(=O)N1CC[C@H](C(=O)N(C)[C@H](C(=O)N[C@H]2Cc3cc(O)cc(c3)-c3ccc4c(c3)c(c(-c3cccnc3)n4C3CC3)CC(C)(C)COC(=O)[C@@H]3CCCN(N3)C2=O)C(C)C)C1	pIC50	< 5.00
C=CC(=O)N1C[C@H](C)[C@H](C(=O)N(C)[C@H](C(=O)N[C@H]2Cc3cc(O)cc(c3)-c3ccc4c(c3)c(c(-c3ccccc3CN(C)C)n4CC)CC(C)(C)COC(=O)[C@@H]3CCCN(N3)C2=O)C(C)C)C1	pIC50	6.00 to 7.00
CCn1c(-c2cnccc2COC)c2c3cc(ccc31)-c1cc(O)cc(c1)C[C@H](NC(=O)[C@@H](OC(=O)N(C)C)C(C)C)C(=O)N1CCC[C@H](N1)C(=O)OCC(C)(C)C2	pIC50	5.00 to 6.00
CCn1c(-c2cnccc2COC)c2c3cc(ccc31)-c1cc(O)cc(c1)C[C@H](NC(=O)[C@H](C(C)C)N(C)C(=O)[C@H]1CCN(C(=O)C(C)C)C1)C(=O)N1CCC[C@H](N1)C(=O)OCC(C)(C)C2	pIC50	6.00 to 7.00

---

Biological target: KRAS G12D (Homo sapiens, UniProt P01116+P62937, G12D)
Sequence (P01116 1-169 isoform P01116-2 G12D limits assumed): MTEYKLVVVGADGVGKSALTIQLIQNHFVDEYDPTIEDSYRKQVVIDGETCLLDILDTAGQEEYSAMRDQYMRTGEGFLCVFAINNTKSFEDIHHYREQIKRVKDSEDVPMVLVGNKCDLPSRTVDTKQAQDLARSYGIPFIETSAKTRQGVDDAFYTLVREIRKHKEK
Sequence (P62937 whole entry): as the sequence (P62937 whole entry) above
Assay: Ras-Raf disruption / FRET / MOA assay (BRAF RBD)
Format: biochemical
Details: KRAS G12D FRET data IC50, Ras-Raf disruption, with Cyclophilin A
Catalogue of IC50 values

COMPOUND	STUDY_SYSTEM	IC50
CCn1c(-c2cccnc2[C@H](C)OC)c2c3cc(ccc31)-c1cc(O)cc(c1)C[C@H](NC(=O)[C@H](C1CCCC1)N(C)C(=O)CN(C)C(=O)[C@H]1N[C@H]1C1(OC)CC1)C(=O)N1CCC[C@H](N1)C(=O)OCC(C)(C)C2 (single isomer, unassigned)	KRAS G12D (Homo sapiens, UniProt P01116+P62937, G12D)	100 to 1000 nM
CCn1c(-c2cccnc2[C@H](C)OC)c2c3cc(ccc31)-c1cc(O)cc(c1)C[C@H](NC(=O)[C@H](C(C)C)N(C)C(=O)[C@H]1CCN1C(=O)[C@H]1CN1)C(=O)N1CCC[C@H](N1)C(=O)OCC(C)(C)C2	KRAS G12D (Homo sapiens, UniProt P01116+P62937, G12D)	100 to 1000 nM
CCn1c(-c2cccnc2[C@H](C)OC)c2c3cc(ccc31)-c1cc(O)cc(c1)C[C@H](NC(=O)[C@H](C1CCCC1)N(C)C(=O)CN(C)C(=O)[C@H]1CN1)C(=O)N1CCC[C@H](N1)C(=O)OCC(C)(C)C2	KRAS G12D (Homo sapiens, UniProt P01116+P62937, G12D)	10 to 100 nM
CC[C@@H]1N[C@@H]1C(=O)N(C)CC(=O)N(C)[C@H](C(=O)N[C@H]1Cc2cc(O)cc(c2)-c2ccc3c(c2)c(c(-c2cccnc2[C@H](C)OC)n3CC)CC(C)(C)COC(=O)[C@@H]2CCCN(N2)C1=O)C(C)C	KRAS G12D (Homo sapiens, UniProt P01116+P62937, G12D)	10 to 100 nM

---

Catalogue of pIC50 values
Target: KRAS G13D (Homo sapiens, UniProt P01116+P62937, G13D)
Sequence (P01116 1-169 isoform P01116-2 G13D limits assumed): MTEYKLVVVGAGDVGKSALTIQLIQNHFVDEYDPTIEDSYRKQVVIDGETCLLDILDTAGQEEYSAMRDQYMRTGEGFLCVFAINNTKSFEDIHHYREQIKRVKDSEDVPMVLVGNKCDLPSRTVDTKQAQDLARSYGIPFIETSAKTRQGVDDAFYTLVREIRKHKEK
Sequence (P62937 whole entry): as the sequence (P62937 whole entry) above
Assay: Disruption of BRAF RBD interaction with Ras (FRET / MOA assay, with Cyclophilin A)
Assay type: biochemical
Conditions: KRAS G13D; read-out: KRAS G13D FRET data IC50
pIC50: −log10 of the molar value.

COMPOUND	STUDY_SYSTEM	pIC50
CCn1c(-c2cccnc2[C@H](C)OC)c2c3cc(ccc31)-c1csc(n1)C[C@H](NC(=O)[C@H](C(C)C)N(C)C(=O)N1CC[C@@]3(CCN(C)C3=O)C1)C(=O)N1CCC[C@H](N1)C(=O)OCC(C)(C)C2 (single isomer, unassigned)	KRAS G13D (Homo sapiens, UniProt P01116+P62937, G13D)	5.00 to 6.00
CCn1c(-c2cccnc2[C@H](C)OC)c2c3cc(ccc31)-c1cc(O)cc(c1)C[C@H](NC(=O)[C@H](C(C)C)N(C)C(=O)C1(CO)CC1)C(=O)N1CCC[C@H](N1)C(=O)OCC(C)(C)C2	KRAS G13D (Homo sapiens, UniProt P01116+P62937, G13D)	6.00 to 7.00
CCn1c(-c2cccnc2[C@H](C)OC)c2c3cc(ccc31)-c1cc(O)cc(c1)C[C@H](NC(=O)[C@H](C(C)C)N(C)C(=O)[C@@H]1CC1(C)C)C(=O)N1CCC[C@H](N1)C(=O)OCC(C)(C)C2	KRAS G13D (Homo sapiens, UniProt P01116+P62937, G13D)	6.00 to 7.00
C=CC(=O)N1CC[C@H](C(=O)N(C)[C@H](C(=O)N[C@H]2C[C@H]3CN(CCCO3)c3ccc4c(c3)c(c(-c3cccnc3[C@H](C)OC)n4CC)CC(C)(C)COC(=O)[C@@H]3CCCN(N3)C2=O)C(C)C)C1 (racemic)	KRAS G13D (Homo sapiens, UniProt P01116+P62937, G13D)	< 5.00
CCn1c(-c2cnccc2COC)c2c3cc(ccc31)-c1cc(O)cc(c1)C[C@H](NC(=O)[C@H](C(C)C)N(C)C(=O)OC1CN(C)C1)C(=O)N1CCC[C@H](N1)C(=O)OCC(C)(C)C2	KRAS G13D (Homo sapiens, UniProt P01116+P62937, G13D)	6.00 to 7.00
C=CC(=O)N1CC(OC[C@H](C(=O)N[C@H]2Cc3cc(F)cc(c3)-c3ccc4c(c3)c(c(-c3cccnc3[C@H](C)OC)n4CC)CC(C)(C)COC(=O)[C@@H]3CCCN(N3)C2=O)C(C)C)C1 (atropisomer, axis not shown)	KRAS G13D (Homo sapiens, UniProt P01116+P62937, G13D)	5.00 to 6.00
CCn1c(-c2cccnc2[C@H](C)OC)c2c3cc(ccc31)-c1csc(n1)C[C@H](NC(=O)[C@H](C(C)C)N(C)C(=O)N1CCC3(CN(C)C3)C1)C(=O)N1CCC[C@H](N1)C(=O)OCC(C)(C)C2 (atropisomer, axis not shown)	KRAS G13D (Homo sapiens, UniProt P01116+P62937, G13D)	6.00 to 7.00
CC#CC(=O)N1CC[C@H](C(=O)N(C)[C@H](C(=O)N[C@H]2Cc3nc(cs3)-c3ccc4c(c3)c(c(-c3cccnc3[C@H](C)OC)n4CC)CC(C)(C)COC(=O)[C@@H]3CCCN(N3)C2=O)C(C)C)C1	KRAS G13D (Homo sapiens, UniProt P01116+P62937, G13D)	< 5.00
CCn1c(-c2cccnc2[C@H](C)OC)c2c3cc(ccc31)-c1csc(n1)C[C@H](NC(=O)[C@H](C(C)C)N(C)C(=O)N1CC[C@@H]1C(=O)NC)C(=O)N1CCC[C@H](N1)C(=O)OCC(C)(C)C2	KRAS G13D (Homo sapiens, UniProt P01116+P62937, G13D)	5.00 to 6.00
